assay endpoint: melting point

Record excerpt, results attached:
[
  {
    "compound": "Cl.NCC12CN(c3nc4c(cc3F)c(=O)c(C(=O)O)cn4-c3cnsn3)CC1CCO2 (stereo not drawn)",
    "melting point": "207 °C (dec.)"
  },
  {
    "compound": "Cc1nc(N2CC3CCOC3(CN)C2)c(Cl)c2c1c(=O)c(C(=O)O)cn2C1CC1.O=C(O)C(F)(F)F (stereo not drawn)",
    "melting point": "125 to 128 °C (dec.)"
  },
  {
    "compound": "NC(=O)NCC12CN(c3c(F)cc4c(=O)c(C(=O)O)cn(C5CC5)c4c3F)CC1CCO2 (stereo not drawn) [Example 27]",
    "melting point": "185 to 187 °C (dec.)"
  }
]

Entry COc1c(N2CC3CCOC3(CN)C2)c(F)c(N)c2c(=O)c(C(=O)O)cn(C3CC3)c12.Cl (stereo not drawn) has what melting point?
242 to 244 °C (dec.)

Reported melting point, compound CCOC(=O)c1cn(C2CC2)c2c(F)c(N3CC4CCOC4(CN)C3)c(F)cc2c1=O.O=C(O)C(F)(F)F (stereo not drawn) : ____
139 to 141 °C

Item C=CCOC(=O)c1cn(C2CC2)c2c(F)c(N3CC4CCOC4(CN)C3)c(F)cc2c1=O (stereo not drawn) [Example 12 B] has what recorded melting point?
133 to 135 °C (dec.)

Which melting point reading was recorded for the compound Cl.NCC12CN(c3cc4c(c(O)c3F)c(=O)c(C(=O)O)cn4C3CC3)CC1CCO2 (stereo not drawn) ?
225 °C (dec.)

Need melting point, item CC(C)(C)n1cc(C(=O)O)c(=O)c2cc(F)c(N3CC4CCOC4(CN)C3)cc21 (stereo not drawn) [Example 17 B]
217 to 218 °C (dec.)

Give its melting point value. Item: CCCCOC(=O)c1cn(C2CC2)c2c(F)c(N3CC4CCOC4(CN)C3)c(F)cc2c1=O (stereo not drawn) [Example 11 B]
117 to 119 °C (dec.)

----------
# reported melting point; entries follow
Where a name gives a salt, the structure may show the parent alone.

Example molecules with recorded melting point:
[
  {
    "molecule": "NCC12CN(c3ncc4c(=O)c(C(=O)O)cn(C5CC5)c4c3F)CC1CCO2 (centres unmarked) (as salt: hydrochloride)",
    "melting point": "301 to 304 °C (dec.)"
  },
  {
    "molecule": "COc1c(N2CC3CCOC3(CN)C2)c(F)c(N)c2c(=O)c(C(=O)O)cn(C3CC3)c12 (centres unmarked)",
    "melting point": "209 to 211 °C (dec.)"
  },
  {
    "molecule": "NCC12CN(c3c(F)cc4c(=O)c(C(=O)OCc5ccccc5)cn(C5CC5)c4c3F)CC1CCO2.O=C(O)C(F)(F)F (centres unmarked)",
    "melting point": "119 to 120 °C (dec.)"
  },
  {
    "molecule": "C#CCOC(=O)c1cn(C2CC2)c2c(F)c(N3CC4CCOC4(CN)C3)c(F)cc2c1=O (centres unmarked)",
    "melting point": "127 to 129 °C (dec.)"
  },
  {
    "molecule": "NCC12CN(c3c(F)cc4c(=O)c(C(=O)OCc5ccccc5)cn(C5CC5)c4c3F)CC1CCO2 (centres unmarked)",
    "melting point": "118 to 119 °C (dec.)"
  }
]

May I ask what melting point has been recorded for CCOC(=O)COC(=O)c1cn(C2CC2)c2c(F)c(N3CC4CCOC4(CN)C3)c(F)cc2c1=O (centres unmarked) ?
144 to 146 °C (dec.)

What measured melting point goes with C=CCOC(=O)c1cn(C2CC2)c2c(F)c(N3CC4CCOC4(CN)C3)c(F)cc2c1=O.O=C(O)C(F)(F)F (centres unmarked) ?
118 to 119 °C (dec.)

melting point for NCC12CN(c3cc4c(cc3F)c(=O)c3c(=O)[nH]sc3n4C3CC3)CC1CCO2.O=C(O)C(F)(F)F (centres unmarked) ?
215 °C (dec.)

Sample CNn1cc(C(=O)O)c(=O)c2cc(F)c(N3CC4CCOC4(CN)C3)c(F)c21.Cl (centres unmarked) — what was its melting point?
177 to 179 °C (dec.)

Query (molecule): O=CNCC12CN(c3c(F)cc4c(=O)c(C(=O)O)cn(C5CC5)c4c3F)CC1CCO2 (centres unmarked) ; field requested: melting point
208 to 209 °C (dec.)

Quick one: melting point of Cc1c(F)c(N2CC3CCOC3(CN)C2)cc2c1c(=O)c(C(=O)O)cn2C1CC1.Cl (centres unmarked) ?
251 to 253 °C (dec.)

Given CN1COc2c(N3CC4CCOC4(CN)C3)c(F)cc3c(=O)c(C(=O)O)cn1c23.Cl (centres unmarked) , state its recorded melting point.
233 °C

Bench note: what melting point did CCOC(=O)c1cn(C2CC2)c2c(F)c(N3CC4CCOC4(CN)C3)ncc2c1=O.O=C(O)C(F)(F)F (centres unmarked) show?
199 to 200 °C (dec.)

Which melting point value belongs to COc1c(N2CC3CCOC3(CN)C2)c(F)cc2c(=O)c(C(=O)O)cn(C3CC3)c12.O=C(O)C(F)(F)F (centres unmarked) ?
215 to 216 °C (dec.)

Field request: melting point | item: C[C@H]1COc2c(N3CC4CCOC4(CN)C3)c(F)cc3c(=O)c(C(=O)O)cn1c23.Cl (some centres unmarked)
191 to 193 °C (dec.)

Name the reported melting point value associated with the molecule COC(=O)c1cn(C2CC2)c2c(F)c(N3CC4CCOC4(CN)C3)c(F)cc2c1=O.Cl (centres unmarked)
109 to 111 °C

Which melting point value belongs to CC(C)(CF)n1cc(C(=O)O)c(=O)c2cc(F)c(N3CC4CCOC4(CN)C3)cc21.O=C(O)C(F)(F)F (centres unmarked) ?
197 to 198 °C (dec.)

----------
Tested on: H. pylori clinic isolate 008
assay protocol: MIC, agar dilution test, H. pylori clinic isolate 008
Type: cell-based
condition label: Helicobacter pylori, lowest concentration with no visible growth
assay endpoint: MIC (µg/mL)
Report only the number, with the unit µg/mL understood.

[
  {
    "compound": "NC(=O)NCC12CN(c3c(F)cc4c(=O)c(C(=O)O)cn([C@@H]5C[C@@H]5F)c4c3Cl)CC1CCO2 (stereo partly shown)",
    "meas value": 0.25
  }
]

Please turn your attention to the following entry.
// lookup MIC for NC(=O)NCC12CN(c3c(F)cc4c(=O)c(C(=O)O)cn(C5CC5)c4c3OC(F)F)CC1CCO2 (stereo not shown)
8

----------
MIC by entry:
Tested on: H. pylori NCTC 11637
Kindly write the number and append the unit.

Solved cases (3 shown):
[
  {
    "molecule": "NC(=O)NCC12CN(c3c(F)cc4c(=O)c(C(=O)O)cn(C5CC5)c4c3OC(F)F)CC1CCO2 (stereo not shown)",
    "measurement target": "H. pylori NCTC 11637",
    "meas value": "8 µg/mL"
  },
  {
    "molecule": "NC(=O)NCC12CN(c3c(F)cc4c(=O)c(C(=O)O)cn([C@@H]5C[C@@H]5F)c4c3Cl)CC1CCO2 (stereo partly shown)",
    "measurement target": "H. pylori NCTC 11637",
    "meas value": "0.125 µg/mL"
  },
  {
    "molecule": "O=CNCC12CN(c3c(F)cc4c(=O)c(C(=O)O)cn(C5CC5)c4c3F)CC1CCO2 (stereo not shown)",
    "measurement target": "H. pylori NCTC 11637",
    "meas value": "0.5 µg/mL"
  }
]

Kindly state the measured MIC obtained for NC(=O)NCC12CN(c3c(F)cc4c(=O)c(C(=O)O)cn(C5CC5)c4c3F)CC1CCO2 (stereo not shown) with H. pylori NCTC 11637.
0.5 µg/mL
